Biological target: T1, anti-CD28 Fab (SEQ ID NOs: 202, 203)
T1 construct: biotinylated and captured on neutravidin coated plates in the phage ELISA
T1 sequence (VH, as listed by the source, chain 1 of 2): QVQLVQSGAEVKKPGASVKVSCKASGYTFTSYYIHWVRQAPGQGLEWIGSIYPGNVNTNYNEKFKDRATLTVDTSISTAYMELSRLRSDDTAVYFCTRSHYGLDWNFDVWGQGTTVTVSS
T1 sequence (VL, as listed by the source, chain 2 of 2): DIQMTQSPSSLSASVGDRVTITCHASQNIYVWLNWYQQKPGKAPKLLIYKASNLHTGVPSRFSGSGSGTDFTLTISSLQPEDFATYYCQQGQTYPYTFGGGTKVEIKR
Assay: phage binding ELISA on captured biotinylated Fab;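 further: clonal phage supernatants added to wells preincubated with CD28 antigen or blocking buffer only, bound phage detected by ELISA with horseradish-conjugated anti-M13 antibody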
quantity-measured: Anti-CD28 Fab (SEQ ID NOs: 202, 203) signal

Here's what some known entries look like.
What value of measured Anti-CD28 Fab (SEQ ID NOs: 202, 203) signal is listed for MCAEFFNYPWPLCL [Phage-946] ?
2.11

Anti-CD28 Fab (SEQ ID NOs: 202, 203) signal for TCAAGAAYPWPLCF [Phage-930] ?
2.18

Now for the binder whose Anti-CD28 Fab (SEQ ID NOs: 202, 203) signal we want.
What does the data say about its Anti-CD28 Fab (SEQ ID NOs: 202, 203) signal? Entry: TCAAGATYSWPWCF [Phage-971]
1.99

Attribution: patent US20260274955A1
